- assay_system: T1, full-length human GLP-1R (GenBank NM_002062) with an N-terminal FLAG tag on HEK-293T cells (human), P43220
- T1 chain: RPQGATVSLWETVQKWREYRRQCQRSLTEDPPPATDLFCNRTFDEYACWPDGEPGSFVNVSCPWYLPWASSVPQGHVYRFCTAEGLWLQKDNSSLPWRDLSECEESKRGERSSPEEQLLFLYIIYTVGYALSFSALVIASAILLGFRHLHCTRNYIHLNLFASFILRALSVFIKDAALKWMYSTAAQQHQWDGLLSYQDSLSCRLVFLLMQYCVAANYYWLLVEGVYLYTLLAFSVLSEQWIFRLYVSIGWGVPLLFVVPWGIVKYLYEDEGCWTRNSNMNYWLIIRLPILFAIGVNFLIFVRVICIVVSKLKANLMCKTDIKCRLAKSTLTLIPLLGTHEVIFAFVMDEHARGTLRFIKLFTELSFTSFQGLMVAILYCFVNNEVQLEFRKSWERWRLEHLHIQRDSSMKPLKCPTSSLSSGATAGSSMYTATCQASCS
- run_description: cell-based or functional assay
Numbered stars: 1 amine (or outer) side, 2 acyl side, 3 side chain; on linkers, the order of the positions; unused ones are H or OH. Square brackets hold non-standard residues; d marks the D form. Primed or numbered codes have the meaning given here. Side chains are listed from the residue outwards. Ends that are not written are not given here. * marks the point of attachment. C20 diacid = O=C(O)CCCCCCCCCCCCCCCCCCC(=O)*; C18 diacid = O=C(O)CCCCCCCCCCCCCCCCC(=O)*; C16 diacid = O=C(O)CCCCCCCCCCCCCCC(=O)*; γGlu = O=C(O)[C@H](CCC(=O)[*:2])N[*:1]; Iva = CC[C@](C)(N)C(=O)O; PEG3′ = not defined here; Abu = CC[C@H](N)C(=O)O; Aib = CC(C)(N)C(=O)O
GLP EC50 reference
assay_metric: GLP EC50

>  <binder>
Y[Aib]EGTFISDYSIALDR[Aib]HQ[Aib]NFVNW[Iva]LAQRPSSGAPPK([Gly-Gly-Gly-Gly-Gly-γGlu-C18 diacid])S (ends and bridges not checked) [Compound No. 460]

>  <val>
> 1000 nM

$$$$
>  <binder>
Y[Aib]EGTFISDYSIALDR[Aib]HQ[Aib]NFVNW[Iva]LAQRPSSGK([PEG3′-PEG3′-γGlu-C16 diacid])PPPS (ends and bridges not checked) [Compound No. 497]

>  <val>
> 1000 nM

$$$$
>  <binder>
Y[Aib]EGTFISDYSIALDR[Aib]HQ[Aib]NFVNW[Iva]LAQRPSSK([PEG3′-PEG3′-γGlu-C16 diacid])APPPS (ends and bridges not checked) [Compound No. 494]

>  <val>
> 1000 nM

$$$$
>  <binder>
Y[Aib]EGTFISDYSIALDR[Aib]HQ[Aib]NFVNW[Iva]LAQRPK([Gly-Gly-Gly-Gly-Gly-γGlu-C16 diacid])SGAPPPS (ends and bridges not checked) [Compound No. 441]

>  <val>
> 1000 nM

$$$$
>  <binder>
Y[Aib]EGTFISDYSIALDR[Aib]HQ[Aib]NFVNW[Iva]LAQRPSK([PEG3′-γGlu-C18 diacid])GAPPPS (ends and bridges not checked) [Compound No. 516]

>  <val>
> 1000 nM

$$$$
>  <binder>
Y[Aib]EGTFISDYSIALDR[Aib]HQ[Aib]NFVNW[Iva]LAQRK([PEG3′-PEG3′-C18 diacid])SSGAPPPSR (ends and bridges not checked) [Compound No 912]

>  <val>
105 nM

$$$$
>  <binder>
Y[Aib]EGTFISDYSIALDR[Aib]HQ[Aib]NFVNW[Iva]LAQRPSSGAPPK([PEG3′-PEG3′-C18 diacid])SR (ends and bridges not checked) [Compound No 934]

>  <val>
436 nM

$$$$
>  <binder>
Y[Aib]EGTFISDYSIALDR[Aib]HQ[Aib]NFVNW[Iva]LAQRPSSGK([PEG3′-PEG3′-γGlu-Ida])PPPS (ends and bridges not checked) [Compound No. 498]

>  <val>
> 1000 nM

$$$$
>  <binder>
Y[Aib]EGTFISDYSIALDR[Aib]HQ[Aib]NFVNW[Iva]LAQRGGGGSGGGGSK([PEG3′-PEG3′-γGlu-C18 diacid]) (ends and bridges not checked) [Compound No 943]

>  <val>
1.2 nM

$$$$
>  <binder>
Y[Aib]EGTFISDYSIALDR[Aib]HQ[Aib]NFVNW[Iva]LAQRPSSGAPK([Abu-γGlu-C18 diacid])PS (ends and bridges not checked) [Compound No. 543]

>  <val>
> 1000 nM

$$$$
>  <binder>
Y[Aib]EGTFISDYSIALDR[Aib]HQ[Aib]NFVNW[Iva]LAQRPSSK([Gly-Gly-Gly-Gly-Gly-γGlu-C20 diacid])APPPS (ends and bridges not checked) [Compound No. 449]

>  <val>
912 nM

$$$$
>  <binder>
Y[Aib]EGTFISDYSIALDR[Aib]HQ[Aib]NFVNW[Iva]LAQRPK([PEG3′-PEG3′-γGlu-Ida])SGAPPPS (ends and bridges not checked) [Compound No. 489]

>  <val>
> 1000 nM

$$$$
>  <binder>
Y[Aib]EGTFISDYSIALDR[Aib]HQ[Aib]NFVNW[Iva]LAQRPSK([PEG3′-PEG3′-γGlu-Ida])GAPPPS (ends and bridges not checked) [Compound No. 492]

>  <val>
> 1000 nM

$$$$
